target: Oxysterols receptor LXR-beta (Mus musculus) (UniProt Q60644); assay: Agonist activity at mouse LXRbeta expressed in HEK293 cells co-expressing CMX-beta-galactosidase incubated for 16 hrs by luciferase reporter gene assay relative to T0901317; type: cell-based
Sequence (Q60644 whole entry): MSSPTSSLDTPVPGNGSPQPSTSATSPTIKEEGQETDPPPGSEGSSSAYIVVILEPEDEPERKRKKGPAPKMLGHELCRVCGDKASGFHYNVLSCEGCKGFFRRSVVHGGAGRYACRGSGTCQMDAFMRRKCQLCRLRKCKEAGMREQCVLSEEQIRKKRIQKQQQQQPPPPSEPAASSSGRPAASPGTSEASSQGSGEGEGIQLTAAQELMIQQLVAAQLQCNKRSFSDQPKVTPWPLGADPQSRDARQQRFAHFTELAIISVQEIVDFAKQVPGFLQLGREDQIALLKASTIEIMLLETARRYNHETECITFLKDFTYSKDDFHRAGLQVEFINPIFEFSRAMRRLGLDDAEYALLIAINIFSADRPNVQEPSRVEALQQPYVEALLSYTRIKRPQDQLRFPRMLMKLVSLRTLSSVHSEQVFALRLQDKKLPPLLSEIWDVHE
So I've got a bunch of molecules here, and I need their Efficacy values.
Answers are plain numbers, in %.

Examples with their reported Efficacy follow.
- structureSmiles: "O=C1c2c(Cl)c(Cl)c(Cl)c(Cl)c2C(=O)N1c1ccccc1/C=C/c1ccsc1"
  property: "Efficacy"
  unitSpec: "%"
  measurement: 23
- structureSmiles: "O=C1c2c(Cl)c(Cl)c(Cl)c(Cl)c2C(=O)N1c1ccccc1/C=C/c1cccs1"
  property: "Efficacy"
  unitSpec: "%"
  measurement: 24
- structureSmiles: "O=C1c2c(Cl)c(Cl)c(Cl)c(Cl)c2C(=O)N1c1ccccc1/C=C/c1ccccc1"
  property: "Efficacy"
  unitSpec: "%"
  measurement: 26

Proceed to the following item.
Exercise: Hello, I am looking for reported Efficacy with Oxysterols receptor LXR-beta (Mus musculus) (UniProt Q60644) for "O=C1c2c(Cl)c(Cl)c(Cl)c(Cl)c2C(=O)N1c1ccccc1/C=C/c1nccs1" . Could you help?
Solution: 22
